molecular target: UniProt P20393; test: modulators of Rev-erb alpha DNA binding, dose response, biochemical, FITC-DNA, fluorescence polarization (AID 1259321)
Calls of active or inactive are those of the source.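 How the source made its calls: active means half-maximal concentration for changing protein binding to DNA, from the fitted dose curve, below 10 micromolar; inactive means the rest.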
MEASURED PROPERTY: IC50

[
  {
    "MOLECULE": "CCc1ccc(-c2cc(C(F)(F)F)n3nc(C(=O)Nc4c(C)nn(Cc5ccccc5Cl)c4C)cc3n2)s1",
    "VALUE OBSERVED": "inactive"
  },
  {
    "MOLECULE": "Cc1cc(=O)oc2cc(OCC3CC(c4ccc(Cl)cc4)=NO3)ccc12 (stereo unspecified)",
    "VALUE OBSERVED": "8.95 µM"
  },
  {
    "MOLECULE": "O=C(NCc1cc(C(F)(F)F)ccc1Cl)c1cccc2c1C(=O)c1ccc(Cl)cc1S2(=O)=O",
    "VALUE OBSERVED": "4.22 µM"
  },
  {
    "MOLECULE": "CC(=O)c1ccc(Nc2ncnc3ccc(Br)cc23)cc1",
    "VALUE OBSERVED": "inactive"
  },
  {
    "MOLECULE": "Cc1nc(NC(=O)c2cncc(Br)c2)ccc1Br",
    "VALUE OBSERVED": "inactive"
  },
  {
    "MOLECULE": "COc1ccc(-c2cc(-c3ccccc3)c(C#N)c(SCC(=O)Nc3ncc(C)s3)n2)cc1",
    "VALUE OBSERVED": "3.58 µM"
  }
]

Q: Consider the molecule shown here: Fc1ccc2nc(Nc3nc4cc5c(cc4s3)OCCO5)sc2c1 What is its recorded IC50?
Result: 6.87 µM

Q: // IC50 lookup, key: CCOC(=O)c1nnn2c1nc(Nc1cccc(C(F)(F)F)c1)c1ccccc12
Result: 1.86 µM

Q: Name the recorded IC50 for COc1ccc2c(Cl)c(-c3nnc(SCC(=O)c4ccccc4)n3C)sc2c1 .
Result: 3.42 µM

Q: Sample COc1ccc(C(=O)Cn2cnc3ccc(Cl)cc3c2=O)cc1F — what was its IC50?
Result: 5 µM

Q: Quick check: IC50 of Cn1c(=O)c(NCCO)c2c3c(cccc31)C(=O)c1ccccc1-2 ?
Result: 3.63 µM

Q: Can you look up the measured IC50 of CN1C(=O)C(=Cc2ccc(N3CCOCC3)o2)C(=O)N(C)C1=S for me?
Result: 4.11 µM

Q: Report IC50 for CN1CCS/C1=C\C=C1/SC(=S)N(CC(=O)O)C1=O please.
Result: inactive

Q: Looking for the measured IC50 of COc1cc(OC)cc(-n2c3nc4ccccc4nc3c3c(=O)n(CC4CCCO4)cnc32)c1 (stereo unspecified) , can you help?
Result: 4.12 µM

Q: What IC50 value was documented for this molecule, COC(=O)Cn1c(=NC(=O)CCS(=O)(=O)c2ccccc2)sc2c(OC)ccc(OC)c21 ?
Result: 3.16 µM

Q: Which IC50 value is on record for CCOC(=O)c1sc(NC(=S)NC(=O)c2cccc(OC)c2)nc1C ?
Result: 8.54 µM

Q: Query: IC50; subject: COc1ccc(-c2c(C#Cc3ccsc3)c3cc(-c4ccc5c(c4)OCCO5)ccc3n2C)cc1
Result: > 40 µM (inactive)

Q: Sample O=C(CSc1nc2c(c(C(F)(F)F)n1)CCc1ccccc1-2)NCc1ccccc1 — what was its IC50?
Result: 4.21 µM

Q: Which IC50 value belongs to CC(C)(C)c1nc(SCC(=O)Nc2ccc3c(c2)OCCO3)c2ccccc2n1 ?
Result: 0.88 µM

Q: Please look up its IC50: COc1ccc(NC(=O)/C(C#N)=C\c2ccc(N3CCOCC3)o2)cc1
Result: > 40 µM (inactive)

Q: If you can, please state the reported IC50 value of Cc1nn(C)cc1N1C(=O)c2cccc3c(N)ccc(c23)C1=O .
Result: inactive

----------
target: Nuclear receptor subfamily 1 group D member 1 (Homo sapiens) (UniProt P20393); test: modulators of Rev-erb alpha DNA binding, dose response, biochemical, FITC-DNA, fluorescence polarization (AID 1259321)
Sequence (P20393 whole entry, looked up): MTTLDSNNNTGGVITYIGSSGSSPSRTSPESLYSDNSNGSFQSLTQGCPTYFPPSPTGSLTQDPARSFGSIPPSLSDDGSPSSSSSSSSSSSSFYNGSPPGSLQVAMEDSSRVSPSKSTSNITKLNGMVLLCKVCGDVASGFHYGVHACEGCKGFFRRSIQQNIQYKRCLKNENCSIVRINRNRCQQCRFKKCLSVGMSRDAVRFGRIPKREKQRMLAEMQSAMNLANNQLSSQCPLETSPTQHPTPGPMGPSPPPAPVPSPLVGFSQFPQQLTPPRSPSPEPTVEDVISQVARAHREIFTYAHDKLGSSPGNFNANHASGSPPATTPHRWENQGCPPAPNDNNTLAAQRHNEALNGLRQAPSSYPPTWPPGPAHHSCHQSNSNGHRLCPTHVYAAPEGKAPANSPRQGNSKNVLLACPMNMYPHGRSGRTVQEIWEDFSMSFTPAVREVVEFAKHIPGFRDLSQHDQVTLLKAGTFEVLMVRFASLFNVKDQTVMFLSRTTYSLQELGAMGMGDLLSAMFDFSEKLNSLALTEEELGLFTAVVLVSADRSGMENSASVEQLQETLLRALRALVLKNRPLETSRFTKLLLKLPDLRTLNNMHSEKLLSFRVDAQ
Activity calls are given as the source filed them.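 How the source made its calls: active means half-maximal concentration for changing protein binding to DNA, from the fitted dose curve, below 10 micromolar; inactive means the rest.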
In this exercise, the only acceptable responses are active, inactive

[
  {
    "MOLECULE": "Cc1cc(C)c(N=C2SCC(=O)N2Cc2ccco2)c(C)c1",
    "ASSAY SYSTEM": "Nuclear receptor subfamily 1 group D member 1 (Homo sapiens) (UniProt P20393)",
    "ASSIGNED CLASS": "active"
  },
  {
    "MOLECULE": "COc1ccccc1-c1ccc2c(c1)C(C)(Cc1ccccc1C#N)C(=O)N2 (configuration not stated)",
    "ASSAY SYSTEM": "Nuclear receptor subfamily 1 group D member 1 (Homo sapiens) (UniProt P20393)",
    "ASSIGNED CLASS": "active"
  },
  {
    "MOLECULE": "Cc1ccc2cc(-c3noc(C4CCCCC4)n3)c(=O)[nH]c2c1",
    "ASSAY SYSTEM": "Nuclear receptor subfamily 1 group D member 1 (Homo sapiens) (UniProt P20393)",
    "ASSIGNED CLASS": "inactive"
  }
]

Q: Status in this test for COc1cc2oc(=O)cc(-c3ccc(-c4ccc(CO)cc4)cc3)c2c(OC)c1OC ?
Result: active

Q: Hi team, can someone confirm the assay call for O=C(CSc1nc2ccccc2nc1N1CCCCC1)NCc1ccc(Cl)cc1Cl ?
Result: active

Q: // outcome(item) with item = CC(C)(C#N)Cc1cc(CC(C)(C)C#N)cc(C(C)(C)C)c1
Result: active

Q: Check the results log: what was the call for CCOC(=O)c1c(NC(=O)C2CCCN(S(=O)(=O)c3ccccc3)C2)sc2c1CCCC2 (configuration not stated) ?
Result: active

Q: For this molecule, state the assay outcome: COCCCNc1nc2c(-c3ccc(C)cc3)nnn2c2ccccc12
Result: active

----------
biological target: Nuclear receptor subfamily 1 group D member 1 (Homo sapiens); test: modulators of Rev-erb alpha DNA binding, dose response, biochemical, FITC-DNA, fluorescence polarization (AID 1259321)
Activity calls are given as the source filed them.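 Rule for the calls: active = half-maximal concentration for changing protein binding to DNA, from the fitted dose curve, below 10 micromolar; inactive = the rest.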
MEASURED PROPERTY: IC50

Below: 8 molecules and their reported IC50.
[
  {
    "MOLECULE": "O=[N+]([O-])c1cc(-c2cnc3ccccc3n2)ccc1Cl",
    "IC50": "3.68 µM"
  },
  {
    "MOLECULE": "COc1ccccc1NC(=O)c1cnc(SCC(=O)NCCc2ccccc2)n(C)c1=O",
    "IC50": "4.36 µM"
  },
  {
    "MOLECULE": "Cc1ccc2[nH]cc(S(=O)(=O)c3ccc(C)c(C)c3)c(=O)c2c1",
    "IC50": "> 40 µM (inactive)"
  },
  {
    "MOLECULE": "CCn1c(SCC(=O)Nc2cc(C)on2)nc2sc(C)c(C)c2c1=O",
    "IC50": "4.73 µM"
  },
  {
    "MOLECULE": "Cc1oc2cc3oc(=O)c4c(c3cc2c1C)CCC4",
    "IC50": "> 40 µM (inactive)"
  },
  {
    "MOLECULE": "O=C1c2c(Br)c(Br)c(Br)c(Br)c2C(=O)N1c1ccccn1",
    "IC50": "8.24 µM"
  },
  {
    "MOLECULE": "CCn1cc(C(=O)NCCc2ccccc2C)c(=O)c2ccc(C)nc21",
    "IC50": "1.16 µM"
  },
  {
    "MOLECULE": "CCCn1c(N)c(C(=O)CSc2nc(C)nc3sc(C)c(C)c23)c(=O)[nH]c1=O",
    "IC50": "> 40 µM (inactive)"
  }
]

Q: Request the reported IC50 associated with COc1cc(C(=O)Nc2nc(-c3ccc(Cl)cc3)c(C)s2)ccc1OCC(=O)Nc1ccc(F)cc1
Result: > 40 µM (inactive)

Q: Please give the measured IC50 for this molecule: Cn1c2ccccc2n2c(=O)c(Cl)c(-c3ccccc3)c(C#N)c12
Result: 3.4 µM

Q: I have this molecule here, O=C(O)CSc1c2ccccc2cc2ccccc12 , and I need its recorded IC50.
Result: > 40 µM (inactive)

Q: Request the reported IC50 associated with CC(=O)Nc1ccc(N2C(=O)c3cccc4c(O)ccc(c34)C2=O)cc1
Result: 0.328 µM

Q: Look up IC50 for this molecule: COC(=O)c1ccc(CSc2ncnc3c2oc2ccccc23)o1
Result: 2.73 µM

Q: # input molecule: CC(=O)Nc1sc(C)c(C)c1C(=O)OCC(=O)N(Cc1ccccc1)C(C)C ; wanted: its IC50
Result: inactive

Q: Returns the measured IC50 for the input molecule. Input: O=C(CSc1nnc(-c2cccs2)n1-c1cccc(Cl)c1)c1cccc2c1OCCO2
Result: 2.25 µM

Q: Quick one: IC50 of CN(C)c1ccc(N=Nc2ccccc2C(=O)OCC(=O)NCC2CCCCC2)cc1 ?
Result: 7.85 µM

Q: Looking for the measured IC50 of COc1ccc(C(C)=O)cc1CSc1nc2ccccc2c(=O)n1-c1cccc(C)c1 , can you help?
Result: 2.17 µM
